Molecular target: OATP1B1 (Homo sapiens)
Sequence (Q9Y6L6 whole entry): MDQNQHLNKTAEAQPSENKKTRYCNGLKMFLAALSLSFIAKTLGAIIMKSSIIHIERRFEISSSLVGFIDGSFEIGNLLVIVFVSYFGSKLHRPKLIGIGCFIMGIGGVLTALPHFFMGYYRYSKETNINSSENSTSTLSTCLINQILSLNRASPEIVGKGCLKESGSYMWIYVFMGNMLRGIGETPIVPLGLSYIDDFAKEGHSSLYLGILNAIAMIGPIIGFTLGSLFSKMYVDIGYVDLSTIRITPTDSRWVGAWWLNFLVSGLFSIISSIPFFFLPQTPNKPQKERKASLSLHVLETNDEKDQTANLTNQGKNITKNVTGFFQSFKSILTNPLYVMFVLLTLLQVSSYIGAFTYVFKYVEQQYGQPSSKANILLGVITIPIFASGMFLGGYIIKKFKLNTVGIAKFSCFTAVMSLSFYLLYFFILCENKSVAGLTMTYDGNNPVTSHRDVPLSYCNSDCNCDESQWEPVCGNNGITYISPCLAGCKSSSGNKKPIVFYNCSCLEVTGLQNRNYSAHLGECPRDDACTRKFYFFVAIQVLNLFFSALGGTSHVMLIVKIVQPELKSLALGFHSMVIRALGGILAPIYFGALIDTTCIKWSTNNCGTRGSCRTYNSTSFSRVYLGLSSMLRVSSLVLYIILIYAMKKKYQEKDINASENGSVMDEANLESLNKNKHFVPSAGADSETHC
Test: in vitro
Settings: hek293 cells

# lineNotation, IC50
rows = [
    ("O=C(O)CCCCCCCCCCCCCCC(=O)O", "1.6 to 4 µM"),
]
